Source: patent US20250277045A1

Would you kindly list koff for each of these binders?
- assayTarget: T1, human BCMA-hFc kih monovalent recombinant protein (human, UniProt P0DOX5 223-449 = IgG part)
- T1 construct: Knob-into-hole heterodimer with one BCMA arm, expressed in HEK293E; also called human BCMA-hFc recombinant protein
- methodSummary: SPR (Biacore T200), BCMA-hFc captured on Protein A chip, Fab as analyte, 1:1 Langmuir
Express it in s⁻¹; write the number only.

What the record says about 38F9 Fab (Fab, V domains shown, Murine BCMA Fab, Ni-NTA purified) VH: EIQLVQSGPELKKPGETVKISCKASGYIFTNFGMNWVRQAPGKALKWMGWINTYTGEQIYADDFKGRFAFSLETSASTAYLQINNLKNEDTATYFCARGEIYYGYDVGFVYWGQGTLVTVSA VL: NIVLTQSPASLAVSLGQRATISCRASESVDSSGNSFMHWYQQKPGQPPKLLIYLESNLESGVPARFSGSGSRTDFTLTIEPVEADDAATYYCQQSNEDPWTFGGGTKLEIK : koff is 0.002

What the record says about 34G2 Fab (Fab, V domains shown, Murine BCMA Fab, Ni-NTA purified) VH: EVQLQQSGPELRKPGETVKISCKASGYTFTNYGMNWVKQTPGKGLKWMGWINTYTGERIYADDFKGRFAFSLETSASTAYLQINNLKNEDTATYFCARGEIYYGYDVGFVYWGQGTLVTVSA VL: DIVLTQSPASLVVSLGQRATISCRASKSVSTSGYSYMHWYQQKPGQPPKLLIYLASNLESGVPARFSGSGSGTDFTLNIHPVEEEDAATYYCQHSRELPWTFGGGTRLEIK : koff is 0.000705

What the record says about 38E2 Fab (Fab, V domains shown, Murine BCMA Fab, Ni-NTA purified) VH: QVQLQQSGAELVRPGTSVKMSCKAAGYTFTNYWIGWVKQRPGHGLEWIGDIYPGSGDTNYNGKFKGKATLAADISSNAAYMQLSSLTSEDSAIYYCARSYYRNDAASFAYWGQGTLVTVSA VL: DIVMTQSHKFMSTSVGDRVNITCKASQDVDTAVAWYQQKPSQSPKLLIYWTSTRHTGVPDRFTGSGSGTDFTLTISNVQSEDLADYFCQQFSSYPLTFGAGTKLELK : koff is 0.000798
